# TARGET_SYSTEM: GST-BCL-2δC21 fusion protein [GST: P08515]
# TEST_DETAILS: fluorescence polarization, unlabelled peptide displacing 25 nM fluoresceinated BIDBH3 from 1 µM GST-BCL-2
OBSERVED_PROPERTY: IC50

>  <SUBSTANCE>
NOXAABH3 (peptide)

>  <TARGET_SYSTEM>
GST-BCL-2δC21 fusion protein [GST: P08515]

>  <IC50>
> 30 µM

$$$$

Consider now this further substance.
Q) Recall the reported IC50 of NOXABBH3 (peptide) when tested on GST-BCL-2δC21 fusion protein [GST: P08515].
A) > 30 µM
